Kappa-type opioid receptor (Homo sapiens): recorded Ki for assorted compounds
Sequence (P41145 whole entry): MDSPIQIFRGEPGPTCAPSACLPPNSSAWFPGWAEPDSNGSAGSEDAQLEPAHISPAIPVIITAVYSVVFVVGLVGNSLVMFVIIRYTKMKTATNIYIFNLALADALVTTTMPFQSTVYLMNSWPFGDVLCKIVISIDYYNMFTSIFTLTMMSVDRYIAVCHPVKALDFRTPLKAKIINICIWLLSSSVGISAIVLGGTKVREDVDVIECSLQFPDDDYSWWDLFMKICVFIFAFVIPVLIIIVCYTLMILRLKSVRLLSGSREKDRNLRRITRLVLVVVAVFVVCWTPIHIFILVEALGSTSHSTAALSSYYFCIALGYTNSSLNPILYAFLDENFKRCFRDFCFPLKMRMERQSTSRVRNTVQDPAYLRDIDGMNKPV
*1 amine or outer side, *2 acyl side, *3 side chain or, on linkers, in order; H or OH if unused. Where a SMILES comes first, the peptide text is derived from it. [ ]: non-standard residue; d: D form. Phe(2,6-Me2,4-CONH2) = Cc1cc(C(N)=O)cc(C)c1C[C@H](N)C(=O)O; Phe(4-CONH2) = NC(=O)c1ccc(C[C@H](N)C(=O)O)cc1; X1 = O=C([C@H](Cc1cc[n+]([O-])cc1)N[*:1])[*:2]

[[record]]
compound = "CC(C)C[C@@H](NC(=O)[C@H](Cc1ccccc1)NC(=O)CNC(=O)[C@@H](C)NC(=O)[C@@H](N)Cc1ccc(N)cc1)C(=O)O"
assayed_system = "Kappa-type opioid receptor (Homo sapiens)"
property_name = "Ki"
measured = "> 10 µM"

[[record]]
compound = "Cc1cc(C(N)=O)cc(C)c1C[C@H](N)C(=O)NCC(=O)NCC(=O)N[C@@H](Cc1ccccc1)C(=O)N[C@@H](CC(C)C)C(=O)O (H-[Phe(2,6-Me2,4-CONH2)]GGFL-OH)"
assayed_system = "Kappa-type opioid receptor (Homo sapiens)"
property_name = "Ki"
measured = "1.3 µM"

[[record]]
compound = "CSCC[C@H](NC(=O)[C@H](Cc1ccccc1)NC(=O)CNC(=O)CNC(=O)[C@@H](N)Cc1ccc(C(N)=O)cc1)C(=O)O (H-[Phe(4-CONH2)]GGFM-OH)"
assayed_system = "Kappa-type opioid receptor (Homo sapiens)"
property_name = "Ki"
measured = "1.03 µM"

[[record]]
compound = "CC(C)C[C@@H](NC(=O)[C@H](Cc1ccccc1)NC(=O)CNC(=O)[C@@H](C)NC(=O)[C@@H](N)Cc1ccc(C(=O)O)cc1)C(=O)O"
assayed_system = "Kappa-type opioid receptor (Homo sapiens)"
property_name = "Ki"
measured = "> 10 µM"

[[record]]
compound = "CC(C)C[C@H](NC(=O)[C@H](Cc1ccccc1)NC(=O)CNC(=O)[C@@H](CO)NC(=O)[C@@H](N)Cc1cccc(C(N)=O)c1)C(=O)N[C@H](C(=O)O)[C@@H](C)O"
assayed_system = "Kappa-type opioid receptor (Homo sapiens)"
property_name = "Ki"
measured = "> 10 µM"


Attention now turns to another entry.
Inquiry: Look at this compound and give its reported Ki. CC(C)C[C@H](NC(=O)[C@H](Cc1ccccc1)NC(=O)CNC(=O)CNC(=O)[C@@H](N)Cc1cc[n+]([O-])cc1)C(=O)O (H-[X1]GGFL-OH)
Reply text: > 10 µM

// provenance: ChEMBL document CHEMBL1139195
